Recorded values, source ChEMBL document CHEMBL5215005.

- System: Streptomyces albus
- experiment: Antibacterial activity against Streptomyces albus Del14 assessed as inhibition zone at 10 ug incubated for 2 days by disc diffusion assay
- Format: functional
- setup.conditions: Del14, 48 h, time 2 day, read-out: IZ
property.label: zone of inhibition at 10 µg/disc (mm)
Write the value in mm as a bare number.

## Input Form: Entry = C/C=C\C=C\[C@@H]1O[C@](O)([C@H](CC)C(=O)NC/C=C/C=C(\C)[C@@H](OC)[C@@H](C)[C@H](O)[C@@H](O)/C=C/C=C/C=C/C=C(\C)C(=O)c2c(O)ccn(C)c2=O)[C@H](O)[C@H](O[C@H]2O[C@@H](C)[C@H](O[C@@H]3O[C@@H](C)[C@H](O)[C@@H](O)[C@H]3OC)[C@H](OC)[C@@H]2O)C1(C)C | System = Streptomyces albus | zone of inhibition at 10 µg/disc = ____
## Output 15

## Input Form: Entry = C/C=C\C=C\[C@@H]1O[C@](O)([C@@H](CC)C(=O)NC/C=C/C=C(\C)[C@H](OC)[C@H](C)[C@@H]2O[C@H](/C=C/C=C/C=C(\C)C(=O)c3c(O)ccn(C)c3=O)[C@H](O)[C@H]2O)[C@H](O)[C@H](O[C@H]2O[C@@H](C)[C@H](O[C@@H]3O[C@@H](C)[C@H](O)[C@@H](O)[C@H]3OC)[C@H](OC)[C@@H]2O)C1(C)C | System = Streptomyces albus | zone of inhibition at 10 µg/disc = ____
## Output 15

## Input Form: Entry = C/C=C\C=C\[C@@H]1O[C@](O)([C@H](CC)C(=O)NC/C=C/C=C(\C)[C@@H](OC)[C@@H](C)[C@H](O)[C@@H](O)\C=C/C=C/C=C/C=C(\C)C(=O)c2c(O)ccn(C)c2=O)[C@H](O)[C@H](O[C@H]2O[C@@H](C)[C@H](O[C@@H]3O[C@@H](C)[C@H](O)[C@@H](O)[C@H]3OC)[C@H](OC)[C@@H]2O)C1(C)C | System = Streptomyces albus | zone of inhibition at 10 µg/disc = ____
## Output 15
